# Test system: 966289-007-R4-J1-PDC complex spheroid viability
# protocol.notes: Anticancer human tumor 966289-007-R4-J1-PDC patient-derived pancreatic adenocarcinoma cell line growth inhibition [RAS]
# condition.parameters: second compound 0.316 µM; first compound 0.316 µM; stronger effect = lower value
Quick reference: viability, T/C of the listed items.
Give just the numeric value; % need not be written.

In the examples that follow, each entry is paired with its recorded viability, T/C.
CC(C)NCC(C(=O)N1CCN(c2ncnc3c2C(C)CC3O)CC1)c1ccc(Cl)cc1 (centres undefined) + C#Cc1c(F)ccc2cc(O)cc(-c3ncc4c(N5CC6CCC(C5)N6)nc(OCC56CCCN5CC(F)C6)nc4c3F)c12 | 128
O=C(c1ccc(F)c(F)c1Nc1ccc(I)cc1F)N1CC(O)([C@@H]2CCCCN2)C1 + C=CC(=O)N1CCN(c2nc(OCC3CCCN3C)nc3c(F)c(-c4nc(N)cc(C)c4C(F)(F)F)c(Cl)cc23)C(C)C1 | 68
CCN1CCN(Cc2ccc(Nc3ncc(F)c(-c4cc(F)c5nc(C)n(C(C)C)c5c4)n3)nc2)CC1 + C#Cc1c(F)ccc2cc(O)cc(-c3ncc4c(N5CC6CCC(C5)N6)nc(OCC56CCCN5CC(F)C6)nc4c3F)c12 | 84.6

# context switch: different compound, same viability, T/C
The compound CC(=O)OC12COC1CC(O)C1(C)C(=O)C(O)C3=C(C)C(OC(=O)C(O)C(NC(=O)OC(C)(C)C)c4ccccc4)CC(O)(C(OC(=O)c4ccccc4)C21)C3(C)C (centres undefined) + C#Cc1c(F)ccc2cc(O)cc(-c3ncc4c(N5CC6CCC(C5)N6)nc(OCC56CCCN5CC(F)C6)nc4c3F)c12 showed viability, T/C equal to 19.3

* * *

# Tested on: 966289-007-R4-J1-PDC complex spheroid viability
# protocol.notes: Anticancer human tumor 966289-007-R4-J1-PDC cell line growth inhibition [RAS];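 further: spheroids exposed to agents for one week before readout; percent viability relative to DMSO vehicle control wells as 100%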
# condition.parameters: second compound 0.0949 µM; first compound 0.1 µM; stronger effect = lower value
Quick reference: viability, T/C of the listed items.

CC1(O)CCCC1n1c(=O)c(C(F)F)cc2cnc(NC3CCN(S(C)(=O)=O)CC3)nc21 (stereo not drawn) + CCn1c(-c2cc(N3CCN(C)CC3)cnc2C(C)OC)c2c3cc(ccc31)-c1csc(n1)CC(NC(=O)C1CC1C)C(=O)N1CCCC(N1)C(=O)OCC(C)(C)C2 | 47.4%
NC1c2ccccc2OC12CCN(c1cnc3c(N4CCCc5ncccc54)n[nH]c3n1)CC2 (stereo not drawn) + CCn1c(-c2cccnc2C(C)OC)c2c3cc(ccc31)N1CCOC(CC(NC(=O)C(C(C)C)N(C)C(=O)C3(F)CCN(C(=O)C#CC(C)(C)N(C)C)CC3)C(=O)N3CCCC(N3)C(=O)OCC(C)(C)C2)C1 | 91.1%
CCC(CC)c1cc(NC2CCC(N)C2)n2nccc2n1 (stereo not drawn) + CCn1c(-c2cc(N3CCN(C)CC3)cnc2C(C)OC)c2c3cc(ccc31)-c1csc(n1)CC(NC(=O)C1CC1C)C(=O)N1CCCC(N1)C(=O)OCC(C)(C)C2 | 111%
CC(C)NCC(C(=O)N1CCN(c2ncnc3c2C(C)CC3O)CC1)c1ccc(Cl)cc1 (stereo not drawn) + CCn1c(-c2cc(N3CCN(C)CC3)cnc2C(C)OC)c2c3cc(ccc31)-c1csc(n1)CC(NC(=O)C1CC1C)C(=O)N1CCCC(N1)C(=O)OCC(C)(C)C2 | 90.7%

The observed viability, T/C for C[C@@H](NC(=O)c1ncnc(N)c1Cl)c1ncc(C(=O)Nc2cc(C(F)(F)F)c(Cl)cn2)s1 + CCn1c(-c2cc(N3CCN(C)CC3)cnc2C(C)OC)c2c3cc(ccc31)-c1csc(n1)CC(NC(=O)C1CC1C)C(=O)N1CCCC(N1)C(=O)OCC(C)(C)C2 when tested with 966289-007-R4-J1-PDC complex spheroid viability stands at 88.3%

The observed viability, T/C for O=C(c1ccc(F)c(F)c1Nc1ccc(I)cc1F)N1CC(O)([C@@H]2CCCCN2)C1 + CCn1c(-c2cc(N3CCN(C)CC3)cnc2C(C)OC)c2c3cc(ccc31)-c1csc(n1)CC(NC(=O)C1CC1C)C(=O)N1CCCC(N1)C(=O)OCC(C)(C)C2 when tested with 966289-007-R4-J1-PDC complex spheroid viability stands at 34.6%

The observed viability, T/C for C=CC(=O)Nc1cc(Nc2nccc(-c3cn(C)c4ccccc34)n2)c(OC)cc1N(C)CCN(C)C + CCn1c(-c2cc(N3CCN(C)CC3)cnc2C(C)OC)c2c3cc(ccc31)-c1csc(n1)CC(NC(=O)C1CC1C)C(=O)N1CCCC(N1)C(=O)OCC(C)(C)C2 when tested with 966289-007-R4-J1-PDC complex spheroid viability stands at 114%

The observed viability, T/C for C=CC(=O)N1CCN(c2nc(OCC3CCCN3C)nc3c(F)c(-c4nc(N)cc(C)c4C(F)(F)F)c(Cl)cc23)C(C)C1 (stereo not drawn) + CCn1c(-c2cccnc2C(C)OC)c2c3cc(ccc31)N1CCOC(CC(NC(=O)C(C(C)C)N(C)C(=O)C3(F)CCN(C(=O)C#CC(C)(C)N(C)C)CC3)C(=O)N3CCCC(N3)C(=O)OCC(C)(C)C2)C1 when tested with 966289-007-R4-J1-PDC complex spheroid viability stands at 93.5%
